# Tested on: JR1
# assay_protocol: Anti-proliferative activity in RMS cell lines, MTT assay
# Format: cell-based
# condition_description: JR1, 96 hours, MTT; read-out: IC50 JR1
pIC50: −log10 of the molar value.
Class y: pIC50 at least 9. Class n: pIC50 below 9.

Prompt: Can O=C(c1cc2cc(O)ccc2[nH]1)N1CC(CCl)c2c1cc(OCc1ccccc1)c1ccccc21 (stereo not drawn) [DP40] be said to have pIC50 at or above 9?
Completion: n

Prompt: # bool: pIC50 of COc1ccc2[nH]c(C(=O)N3CC(CCl)c4c3cc(Nc3ccc(C(F)(F)F)cc3)c3ccccc43)cc2c1 (stereo not drawn) [DP70] >= 9
Completion: n

Prompt: Hi, just wondering whether CCCCNc1cc2c(c3ccccc13)C(CCl)CN2C(=O)c1cc2cc(OC)ccc2[nH]1 (stereo not drawn) [DP63] shows pIC50 of 9 or higher.
Completion: y

Prompt: // inclusive: pIC50 at least 9? input: COc1ccc2[nH]c(C(=O)N3CC(CCl)c4c3cc(O)c3ccccc43)cc2c1 (stereo not drawn) [DP31]
Completion: y

Prompt: Please tell me: is the compound COC(=O)[C@H](CC(C)C)Nc1cc2c(c3ccccc13)C(CCl)CN2C(=O)c1cc2cc(OC)ccc2[nH]1 (stereo partly drawn) [DP65] at or over 9 in terms of pIC50?
Completion: y
